B1: Pistol ribozyme (parent)
chain: GGGUCGUUGUUCCAUAAUCGCGUGGAUAUGGCACGCAAGUUUCUACCGGGCACCGUAAAUGUCCGACUGGAGCCGUUCGGGCGGCUAUAAACAGACCUCAGGCCCGAAGCGUGGCGGCACCUGCCGCCGGUGGUAAAAAAGAUCGGAAGAGCACACGUCU

variants of: B1; assay: aptazyme ON/OFF ratio, guanine; higher = stronger switching; co-transcriptional cleavage with and without guanine
property.measured: aptazyme ON/OFF ratio
Response field accepts a number only; no unit should be typed.

Supply measured aptazyme ON/OFF ratio of U8C G9C U10C C12A C13U in your reply. 1.03

Supply measured aptazyme ON/OFF ratio of U7C U8C G9A U10C U11C C12G C13G in your reply. 1.24

Supply measured aptazyme ON/OFF ratio of U8A G9U U10G U11C C13A in your reply. 1.03

Supply measured aptazyme ON/OFF ratio of U7G U10G U11C C12G C13G in your reply. 1.07

Supply measured aptazyme ON/OFF ratio of U7G G9C U10G C13U in your reply. 1.36

Supply measured aptazyme ON/OFF ratio of U7C U8A U10C U11G C12A in your reply. 1.1

Supply measured aptazyme ON/OFF ratio of U7A U8C G9C U10G U11G C12A C13U in your reply. 1.08

Supply measured aptazyme ON/OFF ratio of U8G G9A U10C C12G in your reply. 1.2

Supply measured aptazyme ON/OFF ratio of U7C U8C U11A C13A in your reply. 1.21

Supply measured aptazyme ON/OFF ratio of U7C U8C G9C U11A C13G in your reply. 1.09

Supply measured aptazyme ON/OFF ratio of U7C U8G U11A C13U in your reply. 1.16

Supply measured aptazyme ON/OFF ratio of U8C G9C C12A C13U in your reply. 1.1

Supply measured aptazyme ON/OFF ratio of U8C G9C U10A U11G C12A in your reply. 1.07

Supply measured aptazyme ON/OFF ratio of U7C U8G G9A U10A U11G C13G in your reply. 1.02

Supply measured aptazyme ON/OFF ratio of U7G U8C G9U U10G U11C C12G C13G in your reply. 1.04

Supply measured aptazyme ON/OFF ratio of U8G G9C U11A C13G in your reply. 1.03

Supply measured aptazyme ON/OFF ratio of U7A U8C G9A C12U in your reply. 1.21

Supply measured aptazyme ON/OFF ratio of U7C U8G U10A U11G C12U C13U in your reply. 1.17

Supply measured aptazyme ON/OFF ratio of U7G G9C U10G C12G C13A in your reply. 1.28

Supply measured aptazyme ON/OFF ratio of U7A U10C U11A C12U in your reply. 1.3

Supply measured aptazyme ON/OFF ratio of U8A G9C U10G U11G C12G in your reply. 1.24

Supply measured aptazyme ON/OFF ratio of U7C U8C G9C U10A U11C in your reply. 1.39

Supply measured aptazyme ON/OFF ratio of U8A G9A U10C in your reply. 2.54

Supply measured aptazyme ON/OFF ratio of U8A U10C U11A C12A C13A in your reply. 1.21

Supply measured aptazyme ON/OFF ratio of U7A U10C U11C C12A in your reply. 1.1

Supply measured aptazyme ON/OFF ratio of U7C U8G U10G C12A in your reply. 1.21

Supply measured aptazyme ON/OFF ratio of U8A U11C C12U C13G in your reply. 1.33

Supply measured aptazyme ON/OFF ratio of G9U U10G C13U in your reply. 1.65

Supply measured aptazyme ON/OFF ratio of U8A G9A U11G C13A in your reply. 1.13

Supply measured aptazyme ON/OFF ratio of U7G U8C G9A U10A C12A C13A in your reply. 1.23

Supply measured aptazyme ON/OFF ratio of U7A U8C G9U U10C C12G C13G in your reply. 1.33

Supply measured aptazyme ON/OFF ratio of U8A G9C U10C C12G C13G in your reply. 1.03

Supply measured aptazyme ON/OFF ratio of U7C U8G U10A U11C C12G C13A in your reply. 1.14

Supply measured aptazyme ON/OFF ratio of U7G U8G G9C U10G U11C in your reply. 1.06

Supply measured aptazyme ON/OFF ratio of U7A G9C U10G U11G C12A C13U in your reply. 1.08

Supply measured aptazyme ON/OFF ratio of U8G U10C C12G C13U in your reply. 1.27

Supply measured aptazyme ON/OFF ratio of U8A U10A C13G in your reply. 1.06

Supply measured aptazyme ON/OFF ratio of U7C U8G G9A U10A U11A C12U C13A in your reply. 1.17

Supply measured aptazyme ON/OFF ratio of G9C U10C U11G C12A C13A in your reply. 1.04

Supply measured aptazyme ON/OFF ratio of U7A U8G U10C U11G C12U C13U in your reply. 1.31

Supply measured aptazyme ON/OFF ratio of U7G U8C U11A C12G C13A in your reply. 1.09

Supply measured aptazyme ON/OFF ratio of U7A U8C G9U U10C C12A C13G in your reply. 1.29

Supply measured aptazyme ON/OFF ratio of U7C G9C U11G C12U C13G in your reply. 1.12

Supply measured aptazyme ON/OFF ratio of U8A G9U C12U C13G in your reply. 1.25

Supply measured aptazyme ON/OFF ratio of G9U U10A U11C C13U in your reply. 1.17

Supply measured aptazyme ON/OFF ratio of U10G U11A C12U C13A in your reply. 1.28

Supply measured aptazyme ON/OFF ratio of U7A U8A G9C U10G C12U in your reply. 1.41

Supply measured aptazyme ON/OFF ratio of U8G G9C U10C C12A C13A in your reply. 1.05

Supply measured aptazyme ON/OFF ratio of U7C U8C G9C U11A C12U C13A in your reply. 1.06

Supply measured aptazyme ON/OFF ratio of U8A G9U U10A U11C C12U in your reply. 1.11

Supply measured aptazyme ON/OFF ratio of U7C U8G U10C U11A C12G in your reply. 1.2

Supply measured aptazyme ON/OFF ratio of U7G G9C U10C C12U C13A in your reply. 1.21

Supply measured aptazyme ON/OFF ratio of U7C G9U U10G in your reply. 1.38

Supply measured aptazyme ON/OFF ratio of U7G U8G G9C C13G in your reply. 1.16

Supply measured aptazyme ON/OFF ratio of U8A G9A U10G C12A C13A in your reply. 1.42

Supply measured aptazyme ON/OFF ratio of U8G G9U U10C U11C C12A C13U in your reply. 1.02

Supply measured aptazyme ON/OFF ratio of U7G U8G U10C U11G C12U C13G in your reply. 1.52

Supply measured aptazyme ON/OFF ratio of U8A G9C U11G C12A C13G in your reply. 1.25

Supply measured aptazyme ON/OFF ratio of U7C U8A G9U U10C U11G C12G in your reply. 1.11

Supply measured aptazyme ON/OFF ratio of U7G U8A G9U U11G C12G C13U in your reply. 1.06

Supply measured aptazyme ON/OFF ratio of U8C G9C U10G U11C C12G C13U in your reply. 1.17

Supply measured aptazyme ON/OFF ratio of U8G G9A U10A U11A C12U C13G in your reply. 1.09

Supply measured aptazyme ON/OFF ratio of U7G U8C G9U U10A U11G C12G C13A in your reply. 1.13

Supply measured aptazyme ON/OFF ratio of U7A U8G G9C U10C U11C C13U in your reply. 1.04

Supply measured aptazyme ON/OFF ratio of U7C G9A U10A U11A C12G C13U in your reply. 1.19

Supply measured aptazyme ON/OFF ratio of U7G U8G G9C C13A in your reply. 1.42

Supply measured aptazyme ON/OFF ratio of U8C G9C U10G U11A C12A in your reply. 1.21

Supply measured aptazyme ON/OFF ratio of U7C U8C G9U U10G U11G C12G in your reply. 1.1

Supply measured aptazyme ON/OFF ratio of U10A U11G C12A C13G in your reply. 1.23

Supply measured aptazyme ON/OFF ratio of U7A G9A U10C U11A C12U C13U in your reply. 1.22

Supply measured aptazyme ON/OFF ratio of U7G U8C G9U U11G C12A in your reply. 1.44

Supply measured aptazyme ON/OFF ratio of U7C U8C G9C U10C U11C C12U in your reply. 1.06

Supply measured aptazyme ON/OFF ratio of U8C G9U U10A U11C C12G C13U in your reply. 1.31

Supply measured aptazyme ON/OFF ratio of U7C U8A G9U U10A U11C C12U C13U in your reply. 1.21

Supply measured aptazyme ON/OFF ratio of U7G G9U U11A C12A in your reply. 1.56

Supply measured aptazyme ON/OFF ratio of U7G U8G G9A U11C C12A C13A in your reply. 1.39

Supply measured aptazyme ON/OFF ratio of U7A U8G U10C U11C C13A in your reply. 1.06

Supply measured aptazyme ON/OFF ratio of U7G G9U U10A U11A C12G C13U in your reply. 1.42

Supply measured aptazyme ON/OFF ratio of U7G U8A G9U U10G U11G C12G C13A in your reply. 1.15

Supply measured aptazyme ON/OFF ratio of U7C U8C G9U U10C C13G in your reply. 1.08

Supply measured aptazyme ON/OFF ratio of U7A U8G G9A U10C U11A C12U C13U in your reply. 1.1

Supply measured aptazyme ON/OFF ratio of U7G U8G U10C U11C C12A C13A in your reply. 1.3

Supply measured aptazyme ON/OFF ratio of U7C U8C G9A U10C U11G C12G C13G in your reply. 1.41

Supply measured aptazyme ON/OFF ratio of U8G G9C U10G C12A C13A in your reply. 1.11

Supply measured aptazyme ON/OFF ratio of U7G G9U U10A U11A C13A in your reply. 1.28

Supply measured aptazyme ON/OFF ratio of U7G U8C U10C U11A C12U in your reply. 1.39

Supply measured aptazyme ON/OFF ratio of U7C U8A G9U U10A C13G in your reply. 1.05

Supply measured aptazyme ON/OFF ratio of U7C U8G G9C U10A U11G C12U C13U in your reply. 1.18

Supply measured aptazyme ON/OFF ratio of U8G C12G C13A in your reply. 1.2

Supply measured aptazyme ON/OFF ratio of U7C U8A U10A C13U in your reply. 1.06

Supply measured aptazyme ON/OFF ratio of U7C U8G G9U U10C U11A in your reply. 1.5
